Here the recorded SEAP EC50 Risk:Prot (NF-κB SEAP reporter, transfected HEK293) is given for each entry.
- experimental system: IL1RL1 with the extracellular risk allele (rs1041973 [C]) and the protective TIR signalling domain haplotype (rs10192157 [T]) (human) (UniProt Q01638)
API: value field is a number in pM; no unit string.

## Input Value lookup for SEAP EC50 Risk:Prot (NF-κB SEAP reporter, transfected HEK293); key = IL33_(113–270) (ligand) ITGISPITEYLASLSTYNDQSITFALEDESYEIYVEDLKKDEKKDKVLLSYYESQHPSNESGDGVDGKMLMVTLSPTKDFWLHANNKEHSVELHKCEKPLPDQAFFVLHNMHSNCVSFECKTDPGVFIGVKDNHLALIKVDSSENLCTENILFKLSET
## Output 188

Continue with the next binder.
## Input Value lookup for SEAP EC50 Risk:Prot (NF-κB SEAP reporter, transfected HEK293); key = IL33_(112–270) (ABNOVA) (ligand) SITGISPITEYLASLSTYNDQSITFALEDESYEIYVEDLKKDEKKDKVLLSYYESQHPSNESGDGVDGKMLMVTLSPTKDFWLHANNKEHSVELHKCEKPLPDQAFFVLHNMHSNCVSFECKTDPGVFIGVKDNHLALIKVDSSENLCTENILFKLSET
## Output 200
